Assay: Metabolic stability assay (substrate depletion) in human liver cytosol fractions
Settings: both, human, liver cytosol fractions, pH 7.4, t1/2 [min] (left), in-house library pair, human transforms, left compound
Reported endpoint: half-life at 1 μM (h)
Numeric answer only, unit h assumed.

// known answers, use as guide
- Compound: "CC(=O)N1CCC(Cc2ccc(C(=O)NC3CC3)cc2)CC1 [CC(=O)N1CCC(Cc2ccc(C(=O)NC3CC3)cc2)CC1]"
  Units text: "h"
  half-life at 1 μM: 1.33
- Compound: "N#Cc1ccc(CN2CC(Oc3ccc(F)cc3F)C2)cc1 [N#Cc1ccc(CN2CC(Oc3ccc(F)cc3F)C2)cc1]"
  Units text: "h"
  half-life at 1 μM: 1.05

(Q) If you can, please state the reported half-life at 1 μM value of O=C(c1ccsc1)N1CCC(Oc2cccc(F)c2)C1 (stereo not drawn) [O=C(c1ccsc1)N1CCC(Oc2cccc(F)c2)C1] .
(A) 1.38

(Q) Ok, now CC(C)(C)c1coc([C@@H]2COCCN2Cc2cccc(C#N)c2)n1
(A) 0.943

(Q) Ok, now N#Cc1cccc(CN2CC(COc3ccccc3)C3(C2)CN(c2ccccc2)C3)c1 (stereo not drawn)
(A) 0.693

----------
Experiment: Metabolic stability assay (substrate depletion) in human liver cytosol fractions
Details: external validation, sheet Human, left compound
// t1/2 [min] (Left) lookup, one value per entry

// known answers, use as guide
- Compound: "O=c1c2nc(Nc3cccc(F)c3)ccc2ncn1-c1ccccc1 [O=c1c2nc(Nc3cccc(F)c3)ccc2ncn1-c1ccccc1]"
  t1/2 [min] (Left): "93.9 min"
- Compound: "Cc1cc2cc(-c3c(C)noc3C)nc(Nc3cccc(F)c3)c2o1"
  t1/2 [min] (Left): "8.2 min"
- Compound: "N#Cc1cccc(-c2c(C(=O)NC3CC3)nc3sccn23)c1 [N#Cc1cccc(-c2c(C(=O)NC3CC3)nc3sccn23)c1]"
  t1/2 [min] (Left): "95.2 min"

Now for a further compound.
(Q) If you can, please state the reported t1/2 [min] (Left) value of Cn1ccc(NC(=O)c2ccc(-c3ncc4cnc(-c5cccc(F)c5)cn34)cc2)n1 .
(A) 33.2 min

----------
// half-life at 1 μM lookup, one value per entry
Test: Metabolic stability assay (substrate depletion) in human liver cytosol fractions
Conditions: both, human, liver cytosol fractions, pH 7.4, t1/2 [min] (Left), external validation, sheet Human, left compound
Numeric answer only, unit h assumed.

// known answers, use as guide
- Molecule: "O=C(c1ccsc1)N1CCC(Oc2cccc(F)c2)C1 (stereo not shown)"
  Endpoint value: 1.38
- Molecule: "N#Cc1cccc(CN2CC(COc3ccccc3)C3(C2)CN(c2ccccc2)C3)c1 (stereo not shown)"
  Endpoint value: 0.693
- Molecule: "CC(C)(C)c1coc([C@@H]2COCCN2Cc2cccc(C#N)c2)n1"
  Endpoint value: 0.943

(Q) If you can, please state the reported half-life at 1 μM value of N#Cc1ccc(CN2CC(Oc3ccc(F)cc3F)C2)cc1 .
(A) 1.05

(Q) Ok, now CC(=O)N1CCC(Cc2ccc(C(=O)NC3CC3)cc2)CC1
(A) 1.33

----------
Experiment: Metabolic stability assay (substrate depletion) in human liver cytosol fractions
Settings: both, human, liver cytosol fractions, pH 7.4, t1/2 [min] (Right), external validation, sheet Human, right compound
Reported endpoint: half-life at 1 μM (min)
Numeric answer only, unit min assumed.

- Chemical structure: "COc1ccc(CN2CC(Oc3ccc(F)c(F)c3)C2)cc1"
  Reported endpoint: "half-life at 1 μM"
  Endpoint value: 30

Now for a further compound.
(Q) If you can, please state the reported half-life at 1 μM value of COc1ccc(CN2CC(Oc3ccc(F)cc3C)C2)cc1 .
(A) 21

----------
Experiment: Metabolic stability assay (substrate depletion) in human liver cytosol fractions
Conditions: external validation, sheet Human, left compound
// t1/2 [min] (Left) lookup, one value per entry
Note: a bare number is incomplete; add the unit.

// known answers, use as guide
- Compound: "N#Cc1cccc(CN2C[C@@H](CO)[C@H](c3ccccn3)C2)c1"
  t1/2 [min] (Left): "57.4 min"
- Compound: "CN(Cc1cccc(F)c1)C1CCOc2ccccc21 (centres unmarked) [CN(Cc1cccc(F)c1)C1CCOc2ccccc21]"
  t1/2 [min] (Left): "8.6 min"
- Compound: "Cc1ccccc1-c1n[nH]c2ncc(-c3cccc(F)c3)nc12 [Cc1ccccc1-c1n[nH]c2ncc(-c3cccc(F)c3)nc12]"
  t1/2 [min] (Left): "49 min"

(Q) If you can, please state the reported t1/2 [min] (Left) value of O=C(c1cccs1)N1CCC(Oc2cccc(F)c2)C1 (centres unmarked) [O=C(c1cccs1)N1CCC(Oc2cccc(F)c2)C1] .
(A) 17.4 min

(Q) Ok, now CNC(=O)[C@@H]1CN(C(=O)c2cccc(C#N)c2)C[C@H]1COC
(A) 86.6 min

(Q) Ok, now O=C(c1ccoc1)N1CCC(Oc2cccc(F)c2)C1 (centres unmarked) [O=C(c1ccoc1)N1CCC(Oc2cccc(F)c2)C1]
(A) 70.5 min

(Q) Ok, now N#Cc1cccc(-c2cn3c(n2)N(C(=O)c2ccco2)CCC3)c1
(A) 36.7 min

(Q) Ok, now Cc1ccc(NC(=O)c2nc3sccn3c2-c2cccc(C#N)c2)cc1
(A) 17.4 min

----------
Assay: Metabolic stability assay (substrate depletion) in mouse liver cytosol fractions
Settings: external validation, sheet Mouse, left compound
// t1/2 [min] (Left) lookup, one value per entry
Numeric answer only, unit min assumed.

// known answers, use as guide
- Molecule: "FC(F)(F)c1ccc2nc([C@H]3CCN(Cc4ccc(Cl)cc4)C3)[nH]c2c1"
  Units text: "min"
  t1/2 [min] (Left): 56.67
- Molecule: "CN1c2cc(C(=O)Nc3ccc(Cl)cc3)ccc2C(=O)N2CCCCCC21 (stereo not drawn)"
  Units text: "min"
  t1/2 [min] (Left): 63.37

(Q) If you can, please state the reported t1/2 [min] (Left) value of CCOc1cc(=O)n2c(c1C(=O)Nc1ccc(Cl)cc1)CCCC2 .
(A) 94.08

----------
Experiment: Metabolic stability assay (substrate depletion) in mouse liver cytosol fractions
Settings: male, CD-1, mouse, liver cytosol fractions, pH 7.4, t1/2 [min] (Right), external validation, sheet Mouse, right compound
Reported endpoint: half-life at 1 μM (min)
Numeric answer only, unit min assumed.

// known answers, use as guide
- Compound: "CCN1c2cc(C(=O)Nc3ccc(Cl)c(F)c3)ccc2C(=O)N2CCCCC21 (centres unmarked)"
  half-life at 1 μM, min: 24.8
- Compound: "O=C1[C@H]2CN(Cc3ccc(Cl)c(F)c3)C[C@H]2C(=O)N1Cc1ccc2c(c1)OCO2"
  half-life at 1 μM, min: 55.3
- Compound: "CN1c2cc(C(=O)Nc3ccc(Cl)c(F)c3)ccc2C(=O)N2CCCCCC21 (centres unmarked)"
  half-life at 1 μM, min: 23
- Compound: "CN1c2cc(C(=O)Nc3ccc(Cl)c(F)c3)ccc2C(=O)N2CCCCC21 (centres unmarked)"
  half-life at 1 μM, min: 31.4
- Compound: "CCN1c2cc(C(=O)Nc3ccc(Cl)c(F)c3)ccc2C(=O)N2CCCCCC21 (centres unmarked)"
  half-life at 1 μM, min: 54.2

(Q) If you can, please state the reported half-life at 1 μM value of COCC1CN(C(C)=O)CC12CCN(Cc1ccc(Cl)c(F)c1)CC2 (centres unmarked) .
(A) 81.5
